Reference source for all entries: patent EP0465716A1

Test system: Acinetobacter calcoaceticus HNR 904
methodNotes: MIC, twofold agar dilution method (clinically isolated strain)
Format: cell-based
conditionContext: HNR904; Acinetobacter calcoaceticus HNR 904, Gram -; 10^6 cfu/ml; 18 hrs at 37 °C

molecule: CC1Sc2c(C(=O)O)c(=O)c3cc(F)c(N4CCC(N)C4)cc3n21 (stereo not shown) [Ref. Drug D]
ltGtEq: >
MIC / µg/mL: 100
//
molecule: CC1Sc2c(C(=O)O)c(=O)c3cc(F)c(N4CC[C@H](N)C4)c(Cl)c3n21 (single isomer, unassigned) [Example 15]
ltGtEq: =
MIC / µg/mL: 6.25
//
molecule: CC1Sc2c(C(=O)O)c(=O)c3cc(F)c(N4CC[C@H](N)C4)c(F)c3n21 (single isomer, unassigned) [Example 18]
ltGtEq: =
MIC / µg/mL: 3.13
//
molecule: CC1Sc2c(C(=O)O)c(=O)c3cc(F)c(N4CCNCC4)cc3n21 (stereo not shown) [Ref. Drug B]
ltGtEq: >
MIC / µg/mL: 100
